- measurement.protocol: in vitro
- test.conditions: mouse
measured.metric: recovery (%)
Dear colleague, please return just the value in %, with no unit written.

Summary for this compound, CCN1CCN(Cc2nc3ccc([N+](=O)[O-])cc3c(=O)n2-c2ccccc2F)CC1 [CID15997213] : recovery is 89

###

- Test system: VEEV TC-83
- measurement.protocol: microbe, parasite or virus in culture
- Format: cell-based
- test.conditions: Venezuelan equine encephalitis virus, Vero 76, read-out: IC50 against TC-83 2º
Please go through the items and note down their IC50.
State the answer as a number, implicitly in µM.

Sure, the documented IC50 for `CCN1CCN(Cc2nc3ccc([N+](=O)[O-])cc3c(=O)n2-c2ccccc2F)CC1` is 1.3

get_value(item= `Clc1ccc2nnnc(-c3ccccc3)c2c1` , readout=IC50) returns 3.45

Looking up `O=c1nc(Nc2ccc(OCc3ccccc3)cc2)sc2ncccc12` , I found its IC50 recorded as 2.38

`CCOC(=O)c1ccc(Nc2nc(=O)c3cccnc3s2)cc1` has a reported IC50 of 7.07

Note to self: IC50 recorded for `O=C(Cc1cccs1)Nc1nc2c(s1)CCCC2` was 4.71

###

- measurement.protocol: in vitro
- test.conditions: mouse, plasma, protein binding
measured.metric: fraction unbound
Reply with just the number.

GET /value?item= CCN1CCN(Cc2nc3ccc([N+](=O)[O-])cc3c(=O)n2-c2ccccc2F)CC1 [CID15997213] &field=fraction unbound returns 0.68

###

- measurement.protocol: in vitro
- test.conditions: mouse, plasma, Mean plasma fraction bound
measured.metric: fraction unbound
Form: value (number only, do not type unit).

The compound `CCN1CCN(Cc2nc3ccc([N+](=O)[O-])cc3c(=O)n2-c2ccccc2F)CC1` showed fraction unbound equal to 0.324

###

- Test system: VEEV TrD
- measurement.protocol: microbe, parasite or virus in culture
- Type: cell-based
- test.conditions: Venezuelan equine encephalitis virus, read-out: IC50, VEEV TrD
pIC50: −log10 of the molar value.
measured.metric: pIC50

Noted for `CCN1CCN(Cc2nc3ccc([N+](=O)[O-])cc3c(=O)n2-c2ccccc2F)CC1` : its pIC50 reads 6.32 to 6.44

###

- measurement.protocol: in vitro
- test.conditions: mouse, plasma
measured.metric: half-life

// `CCN1CCN(Cc2nc3ccc([N+](=O)[O-])cc3c(=O)n2-c2ccccc2F)CC1` : half-life value = > 4 h

###

- Test system: VEEV V3526
- measurement.protocol: microbe, parasite or virus in culture
- Type: cell-based
- test.conditions: Venezuelan equine encephalitis virus, read-out: IC50 against V3526
Provide the recorded IC50 for the entries that follow.
State just the number; it will be interpreted in µM.

Looking up O=C(Cc1cccs1)Nc1nc2c(s1)CCCC2 [compound 847035] , I found its IC50 recorded as 7.09

The reported IC50 of the compound CCN1CCN(Cc2nc3ccc([N+](=O)[O-])cc3c(=O)n2-c2ccccc2F)CC1 [CID15997213] was 1.01

The compound identified as CCOC(=O)c1ccc(Nc2nc(=O)c3cccnc3s2)cc1 [compound 1259240] registered its IC50 at 10.8

Note to self: IC50 recorded for Clc1ccc2nnnc(-c3ccccc3)c2c1 [compound 902491] was 6.12

Lookup result for O=c1nc(Nc2ccc(OCc3ccccc3)cc2)sc2ncccc12 [compound 1258664] ; measured IC50: 3.67

Cited source for all entries: paper PMC4072787
